assay.details: solvent given as SMILES
condition.info: in C1CCOC1
measured.property: absorption maximum (nm)
Could you give me the number in nm? Just the number is fine.

O=C(c1ccncc1)c1ccc(-n2c3ccccc3c3ccccc32)cc1 ... 353.15

Requested field: absorption maximum. Item: F[B-]1(F)n2c(c3cc4ccccc4cc3c2-c2ccccc2)C=C2c3cc4ccccc4cc3C(c3ccccc3)=[N+]21 761

Try the compound CC1(C)c2ccccc2-c2ccc(N(c3ccccc3)c3ccc4c(c3)C(C)(C)c3cc(-c5cc6ccccc6c6c5oc5ccccc56)ccc3-4)cc21 382

Same read-out for O=C1OC(c2ccccc2)=N/C1=C\c1ccc(N(c2ccc(/C=C3\N=C(c4ccccc4)OC3=O)cc2)c2ccc(/C=C3/N=C(c4ccccc4)OC3=O)cc2)cc1 ? 500

What do you get for Cc1ccc([C@@H]2C[C@](O)(c3ccccn3)C[C@](O)(c3ccccn3)[C@H]2C(=O)c2ccc(N(c3ccccc3)c3ccccc3)cc2)cc1 ? 366

Queued: FC(F)(F)C(F)(F)C(F)(F)C1=NC2=C(Sc3ccccc3)C=C3c4cc(Sc5ccccc5)c5nc(C(F)(F)C(F)(F)C(F)(F)F)nc6c(Sc7ccccc7)cc(c4c56)=C4C=C(Sc5ccccc5)C(=N1)C2C34 (stereo unspecified) 565

###

Here, each record is paired with measured absorption maximum data.
assay.details: solvent given as SMILES
condition.info: in CC#N
Number only, in nm; omit the unit.

Guide cases for absorption maximum, answers given:
CC(C)(C)c1ccc2c(c1)c1cc(C(C)(C)C)ccc1n2-c1cccc(-c2nc(-c3cccc(P(=O)(c4ccccc4)c4ccccc4)c3)nc(-c3cccc(P(=O)(c4ccccc4)c4ccccc4)c3)n2)c1 ... 343
N#Cc1c[nH]c2ccccc12 ... 276.25
COc1ccc2c(c1)-c1cc(OC)ccc1C2=O ... 376
CN1C(C(=O)Nc2ccccn2)=C([O-])c2sccc2S1(=O)=O ... 382
COc1ccc(-c2csc(/C(C#N)=C/c3c(Cl)cccc3Cl)n2)cc1 ... 360
CC(C)Oc1ccc(C#Cc2cc3ccccc3oc2=O)cc1 ... 356
Cc1cccc2nc3c(=O)[nH]c(=O)[nH]c3nc12 ... 379
O=Cc1ccc2ccc3cccc4ccc1c2c34 ... 390
CC1=N/C(=C\c2cc(N(C)C)ccc2C#N)C(=O)N1C ... 361
O=c1oc2ccccc2cc1-c1nc2ccccc2o1 ... 352

Request the reported absorption maximum associated with CC1=CC2=Nc3nc(C)[n+](C)cc3CN2C=C1 403

// same read-out, input: CC(=O)c1c2c(cc3c(N(C)C)cccc13)CCC2 316

Then this compound: CN1c2ccccc2CCc2ccccc21 279

What do you get for CN(C)c1ccc(C#Cc2ccc(C=O)cc2)cc1 ? 375.01

What do you get for COc1cccc(-n2c(-c3ccc(O)cc3)nc(C)c2C)c1 ? 288

Then what about the compound CN(C)c1ccc(/C=C/c2nc3c4ccccc4c4ccccc4c3[nH]2)cc1 ? 389

Next compound up: CC[n+]1c(/C=C/c2c([O-])ccc3ccc(=O)oc23)sc2ccccc21 579.15

Would you mind doing C/C(=N\Nc1ccc(C#N)cc1)c1ccccn1 as well? 342

Input Cc1ccc(-c2ccc(/C=C/c3ccc(C#N)cc3)cn2)nc1 343

###

Measured absorption maximum of individual entries
assay.details: solvent given as SMILES
condition.info: in CS(C)=O
Give the number first and the unit second.

Would you please look over these solved cases?
COc1ccc(C2C3=C(CCCC3=O)Nc3c2c(=O)oc2ccccc32)cc1 (stereo not given) ... 361 nm
CCC1=C(C)C2=Cc3ccccc3B(O)N2C1=O ... 361 nm
COC(=O)c1ccc(C#Cc2ccc(N(C)C)cc2)cc1 ... 370 nm

Item CC1=[N+]2C(=C(c3c4ccccc4cc4ccccc34)c3ccc(C)n3[B-]2(F)F)C=C1 has what recorded absorption maximum? 519 nm

How about N#CC1=C(N)n2c(=O)c3ccccc3c(=O)n2C1c1ccccc1 (stereo not given) ? 360 nm

Cited source for all entries: the Deep4Chem optical property database
